Target: UniProt:P11597
Sequence (P11597 18-493): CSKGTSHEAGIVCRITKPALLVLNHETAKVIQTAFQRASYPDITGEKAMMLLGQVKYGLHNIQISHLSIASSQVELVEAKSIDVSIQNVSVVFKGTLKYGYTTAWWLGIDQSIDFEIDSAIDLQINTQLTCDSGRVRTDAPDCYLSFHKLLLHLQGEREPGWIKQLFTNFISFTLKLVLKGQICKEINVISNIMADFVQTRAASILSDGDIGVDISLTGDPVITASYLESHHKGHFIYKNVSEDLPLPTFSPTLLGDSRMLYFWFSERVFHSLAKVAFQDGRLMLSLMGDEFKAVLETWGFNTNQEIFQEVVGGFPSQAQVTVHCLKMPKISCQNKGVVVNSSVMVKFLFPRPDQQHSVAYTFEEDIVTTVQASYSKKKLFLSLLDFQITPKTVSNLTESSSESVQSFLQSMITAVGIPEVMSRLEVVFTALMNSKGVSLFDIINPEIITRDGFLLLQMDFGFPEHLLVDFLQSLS
Property: IC50 (µM)

I: COc1ccc(C(C)C)cc1C1=C(CN(Cc2cc(C(F)(F)F)cc(C(F)(F)F)c2)c2nnn(CCS(C)(=O)=O)n2)CC(C)(C)CC1
II: COc1ccc(C(C)C)cc1C1=C(CN(Cc2cc(C(F)(F)F)cc(C(F)(F)F)c2)c2nnn(CC(N)=O)n2)CC(C)(C)CC1
III: COc1ccc(C(C)C)cc1C1=C(CN(Cc2cc(C(F)(F)F)cc(C(F)(F)F)c2)c2nnn(C)n2)CC(C)(C)CC1
Kindly provide a descending ordering of the above compounds based on their IC50. To answer, write out the labels according to the requested order.
II, I, III
